Provenance of the data: patent US10517889B2

assay: Hematology assays after subcutaneous administration in beagle dogs (Example 8); type: in vivo; details: 30 mg/kg subcutaneous days 1, 3, 5, 8, 15, 22, 29
PROPERTY NAME: RBC

- SUBSTANCE: "790615 (CCAATGAGAATGCTTC; 3-10-3 cEt gapmer, further chemistry not given here) [compound 790615]"
  PROPERTY NAME: "RBC"
  REPORTED VALUE: "6.6 ^6/L"
- SUBSTANCE: "798781 (CGTAAGATTCACAGCA; 3-10-3 cEt gapmer, further chemistry not given here) [compound 798781]"
  PROPERTY NAME: "RBC"
  REPORTED VALUE: "7.3 ^6/L"
- SUBSTANCE: "830037 (antisense CTATTGGCTGATCTGG; 3-10-3 cEt gapmer, further chemistry not given here) [compound 830037]"
  PROPERTY NAME: "RBC"
  REPORTED VALUE: "8.0 ^6/L"
- SUBSTANCE: "830025 (antisense TTTGTAAATCGAAAGC; 3-10-3 cEt gapmer, further chemistry not given here) [compound 830025]"
  PROPERTY NAME: "RBC"
  REPORTED VALUE: "6.4 ^6/L"
- SUBSTANCE: "830121 (AGAATCAAGCCCTGGC; 3-10-3 cEt gapmer, further chemistry not given here) [compound 830121]"
  PROPERTY NAME: "RBC"
  REPORTED VALUE: "8.5 ^6/L"
- SUBSTANCE: "829994 (GGAGGCAGGGCCGCGA; 3-10-3 cEt gapmer, further chemistry not given here) [compound 829994]"
  PROPERTY NAME: "RBC"
  REPORTED VALUE: "6.6 ^6/L"
